- System: RPMI-8226 leukemia
- test-name: NCI tumour cell line growth inhibition, 48 h
assay-metric: TGI

>>> observed_value("CCOP(C)(=O)C(Cc1c[nH]c2ccccc12)C(=O)O (stereo not given)")
"> 100 µM"
>>> observed_value("CC(=O)Oc1ccc2c(c1)Oc1cc(C(C)=O)ccc1C21OC(=O)c2ccccc21 (stereo not given)")
"> 100 µM"
>>> observed_value("O=C1NN(c2ccc(C(=O)O)cc2)C(=O)/C1=C\\c1ccc([N+](=O)[O-])o1")
"83.8 µM"
>>> observed_value("S=C1SC(=Nc2ccccc2)C(=Nc2ccccc2)N1c1ccccc1")
"> 100 µM"
>>> observed_value("COc1cc2nc3sc(C(=O)Nc4ccc(C(=O)OC(C)C)cc4)c(C(=O)Nc4ccc(Cl)cc4C)n3c(=O)c2cc1OC")
"78.6 µM"
>>> observed_value("COC(=O)C1=C2CCC(=O)[C@@]2(C)C(OC(C)=O)C=CC1 (stereo not given in full)")
"> 100 µM"
>>> observed_value("N#Cc1c2ccc([N+](=O)[O-])cc2c(=O)n2c1sc1ccc(C(F)(F)F)cc12")
"> 100 µM"
>>> observed_value("O=C(O)CCCCCCC[C@@H]1S[C@H]1CCCCCCO")
"> 100 µM"
>>> observed_value("COCO[C@@H]1C[C@H]2C(O)Nc3ccccc3C(=O)N2C1 (stereo not given in full)")
"> 100 µM"
>>> observed_value("C=C1C(=O)O[C@H]2[C@H]1CC/C(COC(=O)CCCCC(=O)OC/C1=C/CC[C@@]3(C)O[C@H]3[C@H]3OC(=O)C(=C)[C@@H]3CC1)=C\\CC[C@@]1(C)O[C@@H]21")
"5.59 µM"
>>> observed_value("CCOc1ccc(N=NC2C(=O)N(C(=O)CC(=O)Nc3ccccc3OC)N=C2C)cc1 (stereo not given)")
"> 100 µM"
>>> observed_value("CCN(CC)CC(=O)Nc1c(C(N)=O)nnn1Cc1cc(Cl)c(C(=O)c2ccc(Cl)cc2)c(Cl)c1")
"77.7 µM"
>>> observed_value("COc1cc(OC)cc(Oc2nc3ccccc3nc2C(=O)O)c1")
"> 100 µM"
>>> observed_value("C/C(=N\\NS(=O)(=O)c1ccc(C)cc1)C(CN1CCOCC1)C(c1ccccc1)c1c(O)c2ccccc2oc1=O (stereo not given)")
"> 100 µM"
>>> observed_value("N#Cc1ccc(Oc2nc3ccccc3nc2-c2ccccc2)cc1")
"> 100 µM"
>>> observed_value("N#Cc1c(-c2ccc(Cl)cc2)cc(-c2ccc(Nc3ccnc4cc(C(F)(F)F)ccc34)cc2)[nH]c1=O")
"> 73.7 µM"
>>> observed_value("Cc1ccc(S(=O)(=O)N2CCN(S(=O)(=O)c3ccc(C)cc3)Cc3ccccc3C2)cc1")
"> 100 µM"
>>> observed_value("CS(=O)(=O)NNS(=O)(=O)c1cccc([N+](=O)[O-])c1")
"> 100 µM"
>>> observed_value("O=S1c2ccccc2N=C(c2ccc3ccccc3c2)CC1C1=CC=CCC1 (stereo not given)")
"36.9 µM"
>>> observed_value("COc1cccc2c1CCc1ccccc1CC2=O")
"> 100 µM"
